- Test system: HeLa Kyoto;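 further: synchronized HeLa Kyoto cells, proteins quantified by TMT10plex mass spectrometry, three biological replicates, mitosis taken 0.5 h after nocodazole release, G1/S directly after double thymidine block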
- Assay Explanation: thermal stability score vs G1/S (z-score of summed log2 fold changes over temperatures); higher = more thermally stable than in G1/S
- Condition Parameters: cell cycle stage: mitosis
Decision: thermal stability score compared against -1; not below it gives True, below it gives False.

Substance: MACAEFSFHVPSLEELAGVMQKGLKDNFADVQVSVVDCPDLTKEPFTFPVKGICGKTRIAEVGGVPYLLPLVNQKKVYDLNKIAKEIKLPGAFILGAGAGPFQTLGFNSEFMPVIQTESEHKPPVNGSYFAHVNPADGGCLLEKYSEKCHDFQCALLANLFASEGQPGKVIEVKAKRRTGPLNFVTCMRETLEKHYGNKPIGMGGTFIIQKGKVKSHIMPAEFSSCPLNSDEEVNKWLHFYEMKAPLVCLPVFVSRDPGFDLRLEHTHFFSRHGEGGHYHYDTTPDIVEYLGYFLPAEFLYRIDQPKETHSIGRD [C11ORF54]
Class Label: False

Substance: MPMYQVKPYHGGGAPLRVELPTCMYRLPNVHGRSYGPAPGAGHVQEESNLSLQALESRQDDILKRLYELKAAVDGLSKMIQTPDADLDVTNIIQADEPTTLTTNALDLNSVLGKDYGALKDIVINANPASPPLSLLVLHRLLCEHFRVLSTVHTHSSVKSVPENLLKCFGEQNKKQPRQDYQLGFTLIWKNVPKTQMKFSIQTMCPIEGEGNIARFLFSLFGQKHNAVNATLIDSWVDIAIFQLKEGSSKEKAAVFRSMNSALGKSPWLAGNELTVADVVLWSVLQQIGGCSVTVPANVQRWMRSCENLAPFNTALKLLK [AIMP2]
Class Label: True

Substance: ARFGAP2
Class Label: True

Substance: MKPSGEDQAALAAGPWEECFQAAVQLALRAGQIIRKALTEEKRVSTKTSAADLVTETDHLVEDLIISELRERFPSHRFIAEEAAASGAKCVLTHSPTWIIDPIDGTCNFVHRFPTVAVSIGFAVRQELEFGVIYHCTEERLYTGRRGRGAFCNGQRLRVSGETDLSKALVLTEIGPKRDPATLKLFLSNMERLLHAKAHGVRVIGSSTLALCHLASGAADAYYQFGLHCWDLAAATVIIREAGGIVIDTSGGPLDLMACRVVAASTREMAMLIAQALQTINYGRDDEK [IMPA2]
Class Label: True

Substance: MPRVVPDQRSKFENEEFFRKLSRECEIKYTGFRDRPHEERQARFQNACRDGRSEIAFVATGTNLSLQFFPASWQGEQRQTPSREYVDLEREAGKVYLKAPMILNGVCVIWKGWIDLQRLDGMGCLEFDEERAQQEDALAQQAFEEARRRTREFEDRDRSHREEMEVRVSQLLAVTGKKTTRP [CBFB]
Class Label: True

Substance: MREYKLVVLGSGGVGKSALTVQFVQGIFVEKYDPTIEDSYRKQVEVDAQQCMLEILDTAGTEQFTAMRDLYMKNGQGFALVYSITAQSTFNDLQDLREQILRVKDTDDVPMILVGNKCDLEDERVVGKEQGQNLARQWNNCAFLESSAKSKINVNEIFYDLVRQINRKTPVPGKARKKSSCQLL [RAP1B]
Class Label: False

Substance: MDGKQGGMDGSKPAGPRDFPGIRLLSNPLMGDAVSDWSPMHEAAIHGHQLSLRNLISQGWAVNIITADHVSPLHEACLGGHLSCVKILLKHGAQVNGVTADWHTPLFNACVSGSWDCVNLLLQHGASVQPESDLASPIHEAARRGHVECVNSLIAYGGNIDHKISHLGTPLYLACENQQRACVKKLLESGADVNQGKGQDSPLHAVARTASEELACLLMDFGADTQAKNAEGKRPVELVPPESPLAQLFLEREGPPSLMQLCRLRIRKCFGIQQHHKITKLVLPEDLKQFLLHL [ASB9]
Class Label: False

Substance: MSAHNRGTELDLSWISKIQVNHPAVLRRAEQIQARRTVKKEWQAAWLLKAVTFIDLTTLSGDDTSSNIQRLCYKAKYPIREDLLKALNMHDKGITTAAVCVYPARVCDAVKALKAAGCNIPVASVAAGFPAGQTHLKTRLEEIRLAVEDGATEIDVVINRSLVLTGQWEALYDEIRQFRKACGEAHLKTILATGELGTLTNVYKASMIAMMAGSDFIKTSTGKETVNATFPVAIVMLRAIRDFFWKTGNKIGFKPAGGIRSAKDSLAWLSLVKEELGDEWLKPELFRIGASTLLSDIERQIYHHVTGRYAAYHDLPMS [DERA]
Class Label: False

Substance: MWLWEDQGGLLGPFSFLLLVLLLVTRSPVNACLLTGSLFVLLRVFSFEPVPSCRALQVLKPRDRISAIAHRGGSHDAPENTLAAIRQAAKNGATGVELDIEFTSDGIPVLMHDNTVDRTTDGTGRLCDLTFEQIRKLNPAANHRLRNDFPDEKIPTLREAVAECLNHNLTIFFDVKGHAHKATEALKKMYMEFPQLYNNSVVCSFLPEVIYKMRQTDRDVITALTHRPWSLSHTGDGKPRYDTFWKHFIFVMMDILLDWSMHNILWYLCGISAFLMQKDFVSPAYLKKWSAKGIQVVGWTVNTFDEKSYYESHLGSSYITDSMVEDCEPHF [GDE1]
Class Label: False

Substance: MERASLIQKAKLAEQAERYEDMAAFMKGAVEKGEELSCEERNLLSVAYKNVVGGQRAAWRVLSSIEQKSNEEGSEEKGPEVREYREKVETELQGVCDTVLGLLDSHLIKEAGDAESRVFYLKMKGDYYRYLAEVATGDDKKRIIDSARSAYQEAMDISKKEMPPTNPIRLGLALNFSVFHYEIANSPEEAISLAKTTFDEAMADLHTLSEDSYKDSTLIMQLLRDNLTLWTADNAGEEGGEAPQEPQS [SFN]
Class Label: False

Substance: MPEEGSGCSVRRRPYGCVLRAALVPLVAGLVICLVVCIQRFAQAQQQLPLESLGWDVAELQLNHTGPQQDPRLYWQGGPALGRSFLHGPELDKGQLRIHRDGIYMVHIQVTLAICSSTTASRHHPTTLAVGICSPASRSISLLRLSFHQGCTIASQRLTPLARGDTLCTNLTGTLLPSRNTDETFFGVQWVRP [CD70]
Class Label: False

Substance: XPNPEP3
Class Label: False

meta.source: the supplement of paper PMC5998384
